From: patent US20080044360A1

Listed binders paired with reported % bound
target: T1, human collagen type I, acid soluble, extracted from placenta (Sigma C7774) (human, UniProt P02452 162-1218; P08123 80-1119); assay: dried collagen assay
T1 construct: tissue extract, gelled and dried in wells; also called dried human collagen; h-Collagen
T1 sequence (P02452 162-1218 limits assumed, chain 1 of 2): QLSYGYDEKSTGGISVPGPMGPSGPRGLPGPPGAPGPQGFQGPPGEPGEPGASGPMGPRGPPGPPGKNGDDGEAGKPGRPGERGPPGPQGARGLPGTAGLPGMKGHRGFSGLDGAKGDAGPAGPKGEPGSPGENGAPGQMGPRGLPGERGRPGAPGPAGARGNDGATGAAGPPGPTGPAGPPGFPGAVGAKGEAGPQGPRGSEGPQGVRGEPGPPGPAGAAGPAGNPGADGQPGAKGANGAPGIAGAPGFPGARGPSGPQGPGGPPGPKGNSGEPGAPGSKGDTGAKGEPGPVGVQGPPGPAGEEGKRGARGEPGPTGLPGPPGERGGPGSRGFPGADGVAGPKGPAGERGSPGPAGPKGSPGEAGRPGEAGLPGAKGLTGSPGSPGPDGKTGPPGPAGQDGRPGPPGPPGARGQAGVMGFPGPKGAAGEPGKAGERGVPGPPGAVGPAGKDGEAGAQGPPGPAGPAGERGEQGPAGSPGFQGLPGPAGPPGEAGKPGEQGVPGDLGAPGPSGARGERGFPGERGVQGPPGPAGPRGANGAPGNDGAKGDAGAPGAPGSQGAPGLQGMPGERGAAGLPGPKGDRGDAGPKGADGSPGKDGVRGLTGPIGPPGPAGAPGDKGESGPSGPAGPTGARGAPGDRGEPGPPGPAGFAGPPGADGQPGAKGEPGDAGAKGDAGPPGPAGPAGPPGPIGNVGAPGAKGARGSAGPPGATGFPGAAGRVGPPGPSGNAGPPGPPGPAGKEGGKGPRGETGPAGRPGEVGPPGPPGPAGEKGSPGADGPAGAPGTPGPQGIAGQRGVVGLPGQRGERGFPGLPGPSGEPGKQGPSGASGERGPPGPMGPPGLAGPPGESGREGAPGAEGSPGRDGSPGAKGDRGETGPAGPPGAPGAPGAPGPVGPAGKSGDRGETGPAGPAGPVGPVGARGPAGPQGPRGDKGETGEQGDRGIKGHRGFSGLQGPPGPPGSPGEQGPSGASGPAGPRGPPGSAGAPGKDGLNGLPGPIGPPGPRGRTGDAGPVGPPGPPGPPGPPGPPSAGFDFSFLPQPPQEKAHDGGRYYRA
T1 sequence (P08123 80-1119 limits assumed, chain 2 of 2): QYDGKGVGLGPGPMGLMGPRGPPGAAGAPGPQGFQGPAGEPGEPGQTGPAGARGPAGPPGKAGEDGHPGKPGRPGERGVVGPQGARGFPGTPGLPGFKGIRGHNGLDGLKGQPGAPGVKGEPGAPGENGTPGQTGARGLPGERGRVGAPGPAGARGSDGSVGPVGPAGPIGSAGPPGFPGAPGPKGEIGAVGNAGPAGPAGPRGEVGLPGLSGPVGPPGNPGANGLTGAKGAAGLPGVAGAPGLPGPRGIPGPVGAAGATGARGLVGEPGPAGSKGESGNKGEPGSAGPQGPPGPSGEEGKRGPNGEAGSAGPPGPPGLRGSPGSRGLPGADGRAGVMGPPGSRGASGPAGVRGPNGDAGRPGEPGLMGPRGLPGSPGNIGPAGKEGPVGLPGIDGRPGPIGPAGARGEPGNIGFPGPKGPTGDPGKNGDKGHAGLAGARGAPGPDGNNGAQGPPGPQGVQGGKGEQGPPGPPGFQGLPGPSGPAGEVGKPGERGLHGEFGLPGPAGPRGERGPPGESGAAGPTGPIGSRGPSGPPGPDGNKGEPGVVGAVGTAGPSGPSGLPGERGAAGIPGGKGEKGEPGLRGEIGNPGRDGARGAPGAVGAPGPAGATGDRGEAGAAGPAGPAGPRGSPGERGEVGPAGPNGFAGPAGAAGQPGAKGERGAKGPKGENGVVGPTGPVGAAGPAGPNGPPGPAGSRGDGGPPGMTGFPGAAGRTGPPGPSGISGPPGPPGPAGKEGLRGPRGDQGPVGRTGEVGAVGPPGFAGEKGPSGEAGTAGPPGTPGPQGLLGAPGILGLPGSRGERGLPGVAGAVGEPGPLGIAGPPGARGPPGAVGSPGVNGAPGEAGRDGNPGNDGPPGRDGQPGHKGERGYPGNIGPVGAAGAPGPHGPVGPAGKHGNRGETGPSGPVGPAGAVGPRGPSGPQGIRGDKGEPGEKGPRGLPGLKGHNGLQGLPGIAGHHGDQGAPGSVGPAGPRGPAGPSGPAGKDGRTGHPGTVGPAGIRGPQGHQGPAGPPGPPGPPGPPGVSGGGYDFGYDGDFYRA
Bridge positions count the residues as written; N and C are the ends. Square brackets hold non-standard residues; d marks the D form. Primed or numbered codes have the meaning given here. Side chains are listed from the residue outwards. Ends that are not written are not given here. Gd^T = not defined here; Gd^T″ = GdDTPA-thiourea
Record the value in %, omitting the unit from your answer.

I'd like to know its % bound. The binder in question is {Gd^T″}-GK([Gly-Gd^T″])WHCYTK(Gd^T″)FPYHYCVYY (disulfide 5-14 (inferred)) [Compound ID 1011] 94

I'd like to know its % bound. The binder in question is {Gd^T}-DWTCSGDEYTWHCNYE (disulfide 4-13 (inferred); not fully specified (C-terminus); reading uncertain) [Compound ID 848] 35

I'd like to know its % bound. The binder in question is {Gd^T″}-AWHCTTLFPHH[dY]CLYG (disulfide 4-13 (inferred); not fully specified (C-terminus)) [Compound ID 909] 14
